Heads up, these compounds all have pKi values measured for hEP4 (Homo sapiens).
As a rule, pKi stands for the negative log10 of the concentration, concentration in M.

>  <compound>
O=C(O)CCC/C=C\C[C@@H]1[C@@H](COc2ccccc2Cl)[C@H](O)C[C@H]1Cl [Example 21]

>  <recorded-endpoint>
pKi

>  <observed>
5.30

$$$$
>  <compound>
O=C(O)CCC/C=C\C[C@@H]1[C@@H](COc2ccc(Cl)cc2)[C@H](O)C[C@H]1Cl [Example 23]

>  <recorded-endpoint>
pKi

>  <observed>
5.49

$$$$
>  <compound>
Cc1cc(OC[C@@H]2[C@@H](C/C=C\CCCC(=O)O)[C@H](Cl)C[C@H]2O)cc(C)c1C [Example 38]

>  <recorded-endpoint>
pKi

>  <observed>
6.22

$$$$
>  <compound>
O=C(O)CCC/C=C\C[C@@H]1[C@@H](COc2cccc(C(F)(F)F)c2)[C@H](O)C[C@H]1Cl [Example 24]

>  <recorded-endpoint>
pKi

>  <observed>
5.85

$$$$
>  <compound>
Cc1ccc(C)c(OC[C@@H]2[C@@H](C/C=C\CCCC(=O)O)[C@H](Cl)C[C@H]2O)c1 [Example 34]

>  <recorded-endpoint>
pKi

>  <observed>
5.96

$$$$
>  <compound>
O=C(O)CCC/C=C\C[C@@H]1[C@@H](COc2cccc(O)c2)[C@H](O)C[C@H]1Cl [Example 30]

>  <recorded-endpoint>
pKi

>  <observed>
5.30

$$$$
>  <compound>
O=C(O)CCCCCC[C@@H]1[C@@H](COc2cc(C(F)(F)F)cc(C(F)(F)F)c2)[C@H](O)C[C@H]1Cl [Example 16]

>  <recorded-endpoint>
pKi

>  <observed>
5.39

$$$$
>  <compound>
COCc1c(C)cc(OC[C@@H]2[C@@H](C/C=C\CCCC(=O)O)[C@H](Cl)C[C@H]2O)cc1C [Example 57]

>  <recorded-endpoint>
pKi

>  <observed>
5.78

$$$$

Proceed to the following item.
Qu. Give hEP4 (Homo sapiens) pKi for Cc1cc(OC[C@@H]2[C@@H](C/C=C\CCCC(=O)O)[C@H](Cl)C[C@H]2O)cc(C)c1CO [Example 56]
Ans. 5.66

====

# tgt: hEP4 (Homo sapiens)
# Sequence (P35408 whole entry): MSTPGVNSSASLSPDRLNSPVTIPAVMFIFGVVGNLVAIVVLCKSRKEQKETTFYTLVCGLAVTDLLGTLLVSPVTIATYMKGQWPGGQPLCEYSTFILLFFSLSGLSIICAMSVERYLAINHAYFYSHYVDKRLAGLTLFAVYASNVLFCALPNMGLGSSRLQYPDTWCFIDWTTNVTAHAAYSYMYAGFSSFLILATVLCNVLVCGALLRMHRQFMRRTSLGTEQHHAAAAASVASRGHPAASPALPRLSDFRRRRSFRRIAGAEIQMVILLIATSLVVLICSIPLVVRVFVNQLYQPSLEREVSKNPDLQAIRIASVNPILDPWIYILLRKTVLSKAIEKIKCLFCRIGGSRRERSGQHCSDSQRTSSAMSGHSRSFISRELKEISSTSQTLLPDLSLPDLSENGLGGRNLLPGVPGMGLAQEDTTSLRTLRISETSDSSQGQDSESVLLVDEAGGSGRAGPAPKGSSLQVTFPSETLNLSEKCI
# procedure-details: FLIPR calcium signal, hEP4
# Assay type: cell-based
# Design: expressed in transfected cells; host or cells: HEK-293(EBNA)
# reported-conditions: HEK-293(EBNA) cells expressing hEP4/Gqs5
Entries and their measured EC50 follow.
Numbers only; they are read as µM.

Qu. If you can, please state the reported EC50 value of O=C(O)CCC/C=C\C[C@@H]1[C@@H](COc2cc(C(F)(F)F)cc(C(F)(F)F)c2)[C@H](O)C[C@H]1Cl [Example 15] .
Ans. 13

Qu. Another: Cc1cc(C)cc(OC[C@@H]2[C@@H](C/C=C\CCCC(=O)O)[C@H](Cl)C[C@H]2O)c1 [Example 36]
Ans. 7.72

Qu. // repeat for Cc1ccc(OC[C@@H]2[C@@H](C/C=C\CCCC(=O)O)[C@H](Cl)C[C@H]2O)c(C)c1 [Example 33] and report
Ans. 7.25

Qu. Next compound up: O=C(O)CCCCCC[C@@H]1[C@@H](COc2cccc3ccccc23)[C@H](O)C[C@H]1Cl [Example 20]
Ans. 2.74

Qu. Lookup O=C(O)CCCCCC[C@@H]1[C@@H](COc2cc(C(F)(F)F)cc(C(F)(F)F)c2)[C@H](O)C[C@H]1Cl [Example 16]
Ans. 13.1

====

# tgt: UniProtKB P43116
# procedure-details: cAMP assay, hEP2
# Type: cell-based
recorded-endpoint: EC50 (nM)
The response must be a number in nM with no trailing unit.

Please review the following examples before continuing.
>  <compound>
CCCCCC(O)c1cccc(OC[C@@H]2[C@@H](C/C=C\CCCC(=O)O)[C@H](Cl)C[C@H]2O)c1 (some centres unmarked) [Example 50]

>  <unit-of-measure>
nM

>  <EC50>
68

$$$$
>  <compound>
O=C(O)CCC/C=C\C[C@@H]1[C@@H](COc2ccc(Cl)cc2)[C@H](O)C[C@H]1Cl [Example 23]

>  <unit-of-measure>
nM

>  <EC50>
10

$$$$
>  <compound>
O=C(O)CCC/C=C\C[C@@H]1[C@@H](COc2cccc(OC(=O)c3ccccc3)c2)[C@H](O)C[C@H]1Cl [Example 29]

>  <unit-of-measure>
nM

>  <EC50>
139

$$$$
>  <compound>
O=C(O)CCC/C=C\C[C@@H]1[C@@H](COc2ccccc2CCO)[C@H](O)C[C@H]1Cl [Example 61]

>  <unit-of-measure>
nM

>  <EC50>
128

$$$$

Next compound, EC50 to be filled in.
Qu. Give its EC50 value. Item: CC(O)c1ccc(OC[C@@H]2[C@@H](C/C=C\CCCC(=O)O)[C@H](Cl)C[C@H]2O)cc1 (some centres unmarked) [Example 47]
Ans. 124

====

Record type: pKi measurement. Applies to: hEP2 (Homo sapiens)
API: returns pKi as number; meaning -log10 of concentration in mol/L.

>  <compound>
O=C(O)CCC/C=C\C[C@@H]1[C@@H](COc2cccc3c2CCCC3O)[C@H](O)C[C@H]1Cl (stereo partly shown)

>  <observed>
7.07

$$$$
>  <compound>
O=C(O)CCC/C=C\C[C@@H]1[C@@H](COc2ccccc2CCO)[C@H](O)C[C@H]1Cl

>  <observed>
5.41

$$$$
>  <compound>
COCc1c(C)cc(OC[C@@H]2[C@@H](C/C=C\CCCC(=O)O)[C@H](Cl)C[C@H]2O)cc1C

>  <observed>
6.71

$$$$
>  <compound>
Cc1cc(OC[C@@H]2[C@@H](C/C=C\CCCC(=O)O)[C@H](Cl)C[C@H]2O)cc(C)c1CO

>  <observed>
7.19

$$$$
>  <compound>
O=C(O)CCC/C=C\C[C@@H]1[C@@H](COc2ccc(Cl)cc2)[C@H](O)C[C@H]1Cl

>  <observed>
7.49

$$$$

Qu. Fill in: pKi of CCCCCC(O)c1cccc(OC[C@@H]2[C@@H](C/C=C\CCCC(=O)O)[C@H](Cl)C[C@H]2O)c1 (stereo partly shown) is ___
Ans. 6.08

Qu. Would you mind doing CC(O)c1ccc(OC[C@@H]2[C@@H](C/C=C\CCCC(=O)O)[C@H](Cl)C[C@H]2O)cc1 (stereo partly shown) as well?
Ans. 5.28

====

# tgt: UniProtKB P35408
Below: a set of entries, each annotated with reported Ki.

Qu. // lookup Ki for CC(C)C(O)c1cccc(OC[C@@H]2[C@@H](C/C=C\CCCC(=O)O)[C@H](Cl)C[C@H]2O)c1 (stereo partly drawn)
Ans. > 10000 nM

Qu. Now try CC(O)c1cccc(OC[C@@H]2[C@@H](C/C=C\CCCC(=O)O)[C@H](Cl)C[C@H]2O)c1 (stereo partly drawn) .
Ans. > 10000 nM

Qu. Cool, now "O=C(O)CCC/C=C\C[C@@H]1[C@@H](COc2ccc(CO)cc2)[C@H](O)C[C@H]1Cl"
Ans. > 10000 nM

Qu. Please do the same for CCCC(O)c1cccc(OC[C@@H]2[C@@H](C/C=C\CCCC(=O)O)[C@H](Cl)C[C@H]2O)c1 (stereo partly drawn) as well.
Ans. > 10000 nM

Qu. Moving on to "CC(C)c1cccc(OC[C@@H]2[C@@H](C/C=C\CCCC(=O)O)[C@H](Cl)C[C@H]2O)c1"
Ans. 967 nM

====

# tgt: hEP4 (Homo sapiens)
# procedure-details: FLIPR calcium signal, hEP4
# reported-conditions: HEK-293(EBNA) cells expressing hEP4/Gqs5
pEC50: −log10 of the molar value.
Entry flag: Fulfilled if pEC50 reaches 5; Not fulfilled if it does not.

>  <molecule>
Cc1cccc(C)c1OC[C@@H]1[C@@H](C/C=C\CCCC(=O)O)[C@H](Cl)C[C@H]1O

>  <group-label>
Not fulfilled

$$$$
>  <molecule>
Cc1ccc(OC[C@@H]2[C@@H](C/C=C\CCCC(=O)O)[C@H](Cl)C[C@H]2O)cc1C

>  <group-label>
Not fulfilled

$$$$
>  <molecule>
O=C(O)CCC/C=C\C[C@@H]1[C@@H](COc2cc(C(F)(F)F)cc(Cl)c2F)[C@H](O)C[C@H]1Cl

>  <group-label>
Not fulfilled

$$$$
>  <molecule>
O=C(O)CCC/C=C\C[C@@H]1[C@@H](COc2cccc3c2CCCC3O)[C@H](O)C[C@H]1Cl (stereo partly shown)

>  <group-label>
Fulfilled

$$$$
>  <molecule>
CC(C)(C)c1cccc(OC[C@@H]2[C@@H](C/C=C\CCCC(=O)O)[C@H](Cl)C[C@H]2O)c1

>  <group-label>
Not fulfilled

$$$$
>  <molecule>
CC(C)c1cccc(OC[C@@H]2[C@@H](C/C=C\CCCC(=O)O)[C@H](Cl)C[C@H]2O)c1

>  <group-label>
Fulfilled

$$$$

Qu. # bool: pEC50 of "O=C(O)CCC/C=C\C[C@@H]1[C@@H](COc2ccc(Cl)cc2)[C@H](O)C[C@H]1Cl" >= 5
Ans. Fulfilled

Qu. Ok, now "Cc1cc(OC[C@@H]2[C@@H](C/C=C\CCCC(=O)O)[C@H](Cl)C[C@H]2O)cc(C)c1Cl"
Ans. Not fulfilled

Qu. Note, next up: "O=C(O)CCC/C=C\C[C@@H]1[C@@H](COc2cccc(CCO)c2)[C@H](O)C[C@H]1Cl"
Ans. Not fulfilled
